These measurements were taken from BigSolDB 2.1.

# testParameters: in ethanol, 313.15 K
valueType: solubility (mole fraction)

Input line: Given Cc1[nH]c(=O)c(C#N)cc1-c1ccncc1 , state its recorded solubility (mole fraction).
Output line: 2.74e-05

----------
# testParameters: in DMF, 323.15 K
valueType: solubility (mole fraction)
Please give only the number in your answer, with no unit.

Input line: Query (compound): Cc1[nH]c(=O)c(C#N)cc1-c1ccncc1 ; field requested: solubility (mole fraction)
Output line: 0.000285

----------
# testParameters: in ethylene glycol, 288.15 K
valueType: solubility (mole fraction)
Respond using a number only.

Input line: Consider the molecule Cc1[nH]c(=O)c(C#N)cc1-c1ccncc1 and give its measured solubility (mole fraction).
Output line: 2.46e-05
